- TESTED_TARGET: p97/VCP (Homo sapiens, UniProt P55072)
- Sequence (P55072 2-806): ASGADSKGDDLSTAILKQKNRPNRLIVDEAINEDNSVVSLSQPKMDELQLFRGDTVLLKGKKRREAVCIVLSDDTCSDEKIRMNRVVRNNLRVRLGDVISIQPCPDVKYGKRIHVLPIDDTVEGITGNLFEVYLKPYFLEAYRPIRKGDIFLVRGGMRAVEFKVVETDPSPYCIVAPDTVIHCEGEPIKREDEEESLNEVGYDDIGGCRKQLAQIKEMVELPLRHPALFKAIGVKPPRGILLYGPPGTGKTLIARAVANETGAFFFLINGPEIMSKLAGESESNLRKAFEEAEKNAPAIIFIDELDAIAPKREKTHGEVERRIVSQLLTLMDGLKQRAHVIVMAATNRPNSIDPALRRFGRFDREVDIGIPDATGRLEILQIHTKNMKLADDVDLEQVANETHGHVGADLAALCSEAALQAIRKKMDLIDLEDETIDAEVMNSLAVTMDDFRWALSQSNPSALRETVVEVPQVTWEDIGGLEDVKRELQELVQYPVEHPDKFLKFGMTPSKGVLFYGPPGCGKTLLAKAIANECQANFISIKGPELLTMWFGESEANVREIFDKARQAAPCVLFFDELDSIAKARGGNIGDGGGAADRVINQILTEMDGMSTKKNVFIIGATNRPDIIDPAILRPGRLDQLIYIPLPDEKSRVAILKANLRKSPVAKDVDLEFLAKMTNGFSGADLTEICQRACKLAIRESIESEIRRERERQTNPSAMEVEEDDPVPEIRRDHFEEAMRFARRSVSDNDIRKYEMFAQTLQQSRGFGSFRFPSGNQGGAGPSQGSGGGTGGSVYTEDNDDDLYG
- ASSAY_METHOD_TEXT: cell-free ATPase assay on purified recombinant p97/VCP
EXPERIMENTAL_READOUT: IC50 (µM)
Numbers only; they are read as µM.

For the compound c1ccc(CNc2nc(NCc3ccccc3)c3ccccc3n2)cc1 [DBeQ] , what IC50 is on record?
6.99
